# System: Calu-3
# assay remarks: cell viability relative to DMSO; higher = less toxic
# protocol conditions: 72 h; 1 nM

[
  {
    "compound": "O=C(O)c1ccccc1C(=O)Nc1ccc(S(=O)(=O)Nc2nccs2)cc1",
    "cell viability / %": 105
  },
  {
    "compound": "CC[C@H]1[C@@H](O)[C@@H]2[C@H](CC[C@]3(C)[C@@H]([C@H](C)CCC(=O)O)CC[C@@H]23)[C@@]2(C)CC[C@@H](O)C[C@@H]12",
    "cell viability / %": 106
  },
  {
    "compound": "O=c1cc(N2CCOCC2)nc2c3ccccc3ccn12",
    "cell viability / %": 93.8
  },
  {
    "compound": "CC/C(=C(/CC)c1ccc(O)cc1)c1ccc(O)cc1",
    "cell viability / %": 106
  },
  {
    "compound": "O=C(O)C(Cc1ccccc1[N+](=O)[O-])=NNc1nc(-c2ccc(Cl)c(Cl)c2)cs1",
    "cell viability / %": 98.1
  },
  {
    "compound": "CCOC(=O)[C@H](CCc1ccccc1)N[C@@H](C)C(=O)N1CCC[C@H]1C(=O)O",
    "cell viability / %": 90.5
  },
  {
    "compound": "CCCn1c(=O)c2[nH]cnc2n(-c2ccc(Cl)cc2)c1=O",
    "cell viability / %": 97.7
  },
  {
    "compound": "O=C(NCCCN1CCC2(CC1)OCc1ccccc12)[C@H]1CCCN1Cc1ccccc1",
    "cell viability / %": 104
  },
  {
    "compound": "CCn1nc(C)c2c1C(c1ccccc1)=NCC(=O)N2",
    "cell viability / %": 97.4
  },
  {
    "compound": "OC[C@H]1O[C@@H](OCCc2ccc(O)cc2)[C@H](O)[C@@H](O)[C@@H]1O [salidroside]",
    "cell viability / %": 96
  },
  {
    "compound": "O=C1N(c2ccccc2)c2ccccc2C1(Cc1ccncc1)Cc1ccncc1",
    "cell viability / %": 92.4
  },
  {
    "compound": "c1ccc2c(-c3cnn4cc(-c5ccc(N6CCNCC6)cc5)cnc34)ccnc2c1",
    "cell viability / %": 95.8
  },
  {
    "compound": "C[C@H]1CCc2c(cc(Br)c(F)c2Br)N1C=O",
    "cell viability / %": 105
  },
  {
    "compound": "CC(=O)Nc1nnc(S(N)(=O)=O)s1 [acetazolamide]",
    "cell viability / %": 103
  },
  {
    "compound": "CC(N)C12CC3CC(CC(C3)C1)C2 (stereo not given)",
    "cell viability / %": 91
  },
  {
    "compound": "Cc1nccc2[nH]c(=O)ccc12",
    "cell viability / %": 113
  },
  {
    "compound": "CCCc1c(-c2ccc(O)cc2)nn(-c2ccc(O)cc2)c1-c1ccc(O)cc1",
    "cell viability / %": 94.8
  },
  {
    "compound": "CCN(c1cc(-c2ccc(CN3CCOCC3)cc2)cc(C(=O)NCc2c(C)cc(C)[nH]c2=O)c1C)C1CCOCC1",
    "cell viability / %": 91.2
  },
  {
    "compound": "O=C1CC2(CCCC2)CC(=O)N1CCCCNC[C@H]1COc2ccccc2O1 (racemic)",
    "cell viability / %": 96.9
  },
  {
    "compound": "CC(=O)N(c1onc(C)c1C)S(=O)(=O)c1ccc(N)cc1",
    "cell viability / %": 96.7
  },
  {
    "compound": "Cc1cc(C(=O)CN2CCCC2)c(C)n1-c1ccc(F)cc1",
    "cell viability / %": 112
  },
  {
    "compound": "CC(CNS(=O)(=O)C(C)C)c1ccc(-c2ccc(C#N)cc2)cc1 (stereo not given)",
    "cell viability / %": 93.8
  },
  {
    "compound": "Cc1ccc(-c2cc(C(F)(F)F)nn2-c2ccc(S(N)(=O)=O)cc2)cc1",
    "cell viability / %": 99.4
  },
  {
    "compound": "O=C1C(O)=C(O)C(=O)C(O)=C1O",
    "cell viability / %": 97.3
  },
  {
    "compound": "CCCCC/C=C\\C=C\\CCCCCCCCC(=O)O [trans-10,cis-12-conjugated-linoleic-acid]",
    "cell viability / %": 102
  },
  {
    "compound": "Cc1cc(N2CCOCC2)cc2[nH]c(-c3c(NC[C@@H](O)c4cccc(Cl)c4)cc[nH]c3=O)nc12",
    "cell viability / %": 89.8
  },
  {
    "compound": "Cc1ccc(S(=O)(=O)NCc2ccccc2)cc1",
    "cell viability / %": 98.1
  },
  {
    "compound": "C[C@H]1CC[C@H](n2c3cnccc3c3cnc(Nc4ccc5c(n4)CCN(C(=O)CO)C5)nc32)CC1",
    "cell viability / %": 95.1
  },
  {
    "compound": "CCOCc1cc(OC)c(-c2ccc(C[C@H](NC(=O)c3c(F)cccc3F)C(=O)O)cc2)c(OC)c1",
    "cell viability / %": 103
  },
  {
    "compound": "Oc1ccc2c3c1O[C@H]1c4[nH]c5ccccc5c4C[C@@]4(O)[C@@H](C2)N(CC2CC2)CC[C@]314",
    "cell viability / %": 98.5
  },
  {
    "compound": "O=c1ncn2nc(Sc3ccc(F)cc3F)ccc2c1-c1c(Cl)cccc1Cl",
    "cell viability / %": 97.1
  },
  {
    "compound": "COC[C@@H](NC(C)=O)C(=O)NCc1ccccc1 [Lacosamide]",
    "cell viability / %": 99.1
  },
  {
    "compound": "Oc1ccc2c3c1O[C@H]1c4oc5ccccc5c4C[C@@]4(O)[C@@H](C2)N(CC2CC2)CC[C@]314",
    "cell viability / %": 105
  },
  {
    "compound": "COC(=O)[C@H](CC(C)C)NC(=O)[C@@H](N)CC(C)C",
    "cell viability / %": 98.1
  },
  {
    "compound": "CCOc1cc2ncc(C#N)c(Nc3ccc(OCc4cccc(F)c4)c(Cl)c3)c2cc1NC(=O)/C=C/CN(C)C",
    "cell viability / %": 101
  }
]
